assay: Dynamic Vapour Sorption (DVS) hygroscopicity; format: physicochemical; conditions: re-crystallized salt forms; 0%-RH to 90%-RH at 25° C.
quantity name: Hygroscopicity, weight increase

> print(dat)
                                   compound    reported
1  CCc1[nH]nc(C(=O)Nc2ccc([C@H]3CNCCO3)cc2)c1C [Adipic acid]   (0.2%-m/m
2  CCc1[nH]nc(C(=O)Nc2ccc([C@H]3CNCCO3)cc2)c1C [Hydrochloric acid]  (<0.1%-m/m
3  CCc1[nH]nc(C(=O)Nc2ccc([C@H]3CNCCO3)cc2)c1C [Phosphoric acid]   (0.2%-m/m
4  CCc1[nH]nc(C(=O)Nc2ccc([C@H]3CNCCO3)cc2)c1C [p-Toluenesulfonic acid]  (<0.1%-m/m
